- targetOrTestSystem: CD45 (Homo sapiens, UniProt P08575)
- Construct: incubating the cytosolic portion of CD45 with the compounds and p-nitrophenyl phosphate (pNPP); purchased BIOMOL (Plymouth Meeting, Pa.)
- Sequence (P08575 599-1306 limits assumed): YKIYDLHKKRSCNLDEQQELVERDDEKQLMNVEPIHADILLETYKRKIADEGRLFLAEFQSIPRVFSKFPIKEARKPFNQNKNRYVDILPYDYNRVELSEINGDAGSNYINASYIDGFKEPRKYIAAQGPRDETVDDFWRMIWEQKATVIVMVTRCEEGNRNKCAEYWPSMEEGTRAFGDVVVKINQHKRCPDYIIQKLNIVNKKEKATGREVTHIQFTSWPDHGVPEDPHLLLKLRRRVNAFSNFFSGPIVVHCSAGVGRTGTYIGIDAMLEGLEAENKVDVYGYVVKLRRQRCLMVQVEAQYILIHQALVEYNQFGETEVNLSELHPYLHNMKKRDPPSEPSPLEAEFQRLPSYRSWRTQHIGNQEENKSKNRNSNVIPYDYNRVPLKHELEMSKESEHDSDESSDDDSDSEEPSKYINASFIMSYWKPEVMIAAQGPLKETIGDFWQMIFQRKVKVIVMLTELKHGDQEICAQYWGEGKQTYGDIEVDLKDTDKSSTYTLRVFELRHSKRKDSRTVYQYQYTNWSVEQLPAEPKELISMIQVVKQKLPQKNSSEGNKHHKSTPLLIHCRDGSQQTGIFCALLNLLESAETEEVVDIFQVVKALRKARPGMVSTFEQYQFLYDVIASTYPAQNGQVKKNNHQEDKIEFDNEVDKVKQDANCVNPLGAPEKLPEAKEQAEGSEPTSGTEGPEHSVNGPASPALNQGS
- assayDetails: Phosphatase assay using lck 10-mer as substrate
- Assay type: biochemical
Where a SMILES comes first, the peptide text is derived from it. The star is where a group is joined. Phenanthrenequinone2carbonyl = O=C1C(=O)c2cc(C(=O)*)ccc2-c2ccccc21; 3Phenanthroyl(9,10-dioxo) = O=C1C(=O)c2ccc(C(=O)*)cc2-c2ccccc21
endpoint: IC50 (µM)
Use µM as the unit, but write only the number.

IC50 measured on O=C(O)CC[C@H](NC(=O)[C@@H]1CCCN1C(=O)[C@H](CCC(=O)O)NC(=O)CNC(=O)c1ccc2c(c1)C(=O)C(=O)c1ccccc1-2)C(=O)NCC(=O)O [Example 43] (Phenanthrenequinone2carbonyl-GEPEG-OH) = 3.8

Measured IC50, NC(=O)CC[C@H](NC(=O)[C@H](CCC(=O)O)NC(=O)c1ccc2c(c1)-c1ccccc1C(=O)C2=O)C(=O)NCC(=O)N[C@@H](CCC(N)=O)C(=O)N1CCC[C@H]1C(=O)O [Example 31] ({3Phenanthroyl(9,10-dioxo)}-EQGQP-OH) : 2.5

---

- assayDetails: Cytotoxicity assay (Calcein-AM uptake)
- settings: human, PHA-expanded T-cell lymphoblasts from PBMC
endpoint: CC50 (µM)
Lab book: enter the figure in µM, no units written.

response.value for CC(C)(C)OC(=O)CNC(=O)c1ccc2c(c1)-c1ccccc1C(=O)C2=O (field: CC50) = 2.5

Lab book: CC50 of CC(C)(C)C(=O)Nc1ccc2c(c1)C(=O)C(=O)c1ccccc1-2 noted as 3.5

# CC50 of COC(=O)CCC(=O)Nc1cccc2c1-c1ccccc1C(=O)C2=O = 8

Record summary for COC(=O)CCCC(=O)Nc1ccc2c(c1)C(=O)C(=O)c1cccc(NC(=O)CCCC(=O)OC)c1-2 : reported CC50 = 19

Entry under test: O=C1C(=O)c2cc(-c3cc4ccccc4o3)ccc2-c2ccccc21 . Its CC50 was 3.6

Lab note: O=C1C(=O)c2cc(NC(=O)c3c(Cl)cc(Cl)cc3Cl)ccc2-c2ccccc21 gave CC50 of 12

Per the records, this compound ( O=C1C(=O)c2ccc([N+](=O)[O-])cc2-c2ccccc21 ) has CC50 equal to 2.8
